Below, IC50 values reported for Histone deacetylase 1 (Homo sapiens) across several publications.
endpoint: IC50 (nM)

Cc1n[nH]c(C)c1CCN1CCC[C@@H]1c1ccc(/C=C/C(=O)NO)cc1 ... 12

P. O=C(/C=C/c1ccc(CN2CCC(N3CCc4ccccc4C3=O)CC2)cc1)NO
Q. CC(Cc1nc2cc(/C=C/C(=O)NO)ccc2n1CC(C)(C)CN(C)C)CC(C)(C)C (centres unmarked)
R. CCc1nc2cc(F)c(/C=C/C(=O)NO)cc2c(=O)n1-c1ccc(OC)cc1C
S. Cc1cc(/C=C/C(=O)NO)ccc1-c1ccc(N2CCNCC2)cc1NC(=O)c1ccccc1
Q. Order the records so the highest IC50 appears first and the lowest last. Field: ranking. Enter the labels in the order requested.
A. R, S, Q, P

* * *

Below, IC50 values reported for Histone deacetylase 1 (Homo sapiens, UniProt Q13547) across several publications.
endpoint: IC50 (nM)

CC(C)Cc1nc2cc(/C=C/C(=O)NO)ccc2n1CCN(C(C)C)C(C)C ... 380
Cc1c(Cc2ccc(C(=O)NO)cc2)c2ccccc2n1CCN1CC[C@H](F)C1 ... 7140
CN1CCN(c2ccccc2CN2CCC(c3ccnc4c3ccn4Cc3ccc(C(=O)NO)cc3)CC2)CC1 ... 530
C=CCCc1nc2cc(/C=C/C(=O)NO)ccc2n1CC(C)(C)CN(C)C ... 140

a. C=CCCCN(C)CCn1cnc2cc(/C=C/C(=O)NO)ccc21
b. CSc1nc2cc(/C=C/C(=O)NO)ccc2n1CC(C)(C)CN(C)C
Q. For a and b , which recorded IC50 is lower? Provide the label of your selected option as the answer.
A. a
(a: 78 nM, b: 770 nM)

* * *

Below, IC50 values reported for Histone deacetylase 1 (Homo sapiens, UniProt Q13547) across several publications.
endpoint: IC50 (nM)

Some compounds with known IC50 results, for comparison:
O=C(/C=C/c1ccc([C@@H]2CCCN2CCn2cc(Br)cn2)cc1)NO ... 35
O=C(CCCCCCN(c1ccccn1)c1ccc(OCc2ccccc2)cn1)NO ... 182

P. O=C(O)CN1CCC(c2ccnc3c2ccn3Cc2ccc(C(=O)NO)cc2)CC1
Q. O=C(/C=C/c1ccc(CN2CCOCC2)cc1)NO
Q. Kindly identify which of P and Q has the larger recorded IC50 value. Provide the label of your selected option as the answer.
A. P

* * *

Below, IC50 values reported for Histone deacetylase 1 (Homo sapiens, UniProt Q13547) across several publications.
endpoint: IC50 (nM)

O=C(/C=C/c1ccc(CN2CCCC2Cc2cccnc2)cc1)NO (centres unmarked) ... 5

A. Cc1ccccc1-n1c(C)nc2cc(F)c(/C=C/C(=O)NO)cc2c1=O
B. O=C(NO)c1ccc(Cn2ccc3c(C4CCN(Cc5cccc(CN6CCOCC6)c5)CC4)ccnc32)cc1
Q. Kindly identify which of A and B has the larger recorded IC50 value. Provide the label of your selected option as the answer.
A. A

* * *

pIC50: −log10 of the molar value.
Below, pIC50 values reported for Histone deacetylase 1 (Homo sapiens, UniProt Q13547) across several publications.
endpoint: pIC50

CC(C)C[C@@H](C(=O)N1CCC(Nc2ncc(C(=O)NO)cn2)(c2ccccc2)CC1)c1ccccc1 (stereo in doubt) ... 7.64
Cc1c(CCN2CCC[C@H]2c2ccc(/C=C/C(=O)NO)cc2)c(=O)n(-c2ccccc2)n1C ... 7.70

P. O=C(NO)c1ccc(Cn2ccc3c(N4CCN(c5cnc(C(F)(F)F)cn5)CC4)ccnc32)cc1
Q. CCOCc1nc2cc(/C=C/C(=O)NO)ccc2n1CCN(CC)CC
Q. For P and Q , which recorded pIC50 is lower? Provide the label of your selected option as the answer.
A. P
(P: 5.82, Q: 7.07)

A. Cc1cc(/C=C/C(=O)NO)ccc1-c1ccc(N2CCOCC2)cc1
B. O=C(NO)c1ccc(Cn2ccc3c(N4CCN(Cc5ccc(C(F)(F)F)cc5)CC4)ccnc32)cc1
Q. For A and B , which recorded pIC50 is lower? Provide the label of your selected option as the answer.
A. B

* * *

Below, IC50 values reported for Histone deacetylase 1 (Homo sapiens, UniProt Q13547) across several publications.
endpoint: IC50 (nM)

Some molecules with known IC50 results, for comparison:
CN1CCN(c2ccc(-c3ccc(/C=C/C(=O)NO)cc3)cc2)CC1 ... 942
CN(C(=O)CCCNc1cccc2c1C(=O)N(C1CCC(=O)NC1=O)C2=O)c1ccc(NC(=O)CCCCCCC(=O)NO)cc1 (stereo not shown) ... 1040
CC(C)NCCn1c(CC(C)(C)C)nc2cc(/C=C/C(=O)NO)ccc21 ... 64

P. CCn1nc(C)c(CCN2CCC[C@H]2c2ccc(/C=C/C(=O)NO)cc2)c1C
Q. O=C(NO)c1ccc(Cn2ccc3cc(-c4ccccc4)cnc32)cc1
R. O=C(NO)c1ccc(Cn2ccc3cc(-c4cccnc4)cnc32)cc1
Q. Let's sort these by IC50, smallest first. Go ahead? Field: ranking. Enter the labels in the order requested.
A. P, R, Q
(P: 1.7 nM, R: 382 nM, Q: 3050 nM)

* * *

Below, IC50 values reported for Histone deacetylase 1 (Homo sapiens, UniProt Q13547) across several publications.
endpoint: IC50 (nM)

P. CCN(CC)S(=O)(=O)c1cccc(-c2nnc(Sc3ccc(C(=O)NO)cc3)n2C)c1
Q. COc1ccc(C(F)(F)F)cc1CNc1ncc(C(=O)NO)cn1
R. O=C(/C=C/c1ccc([C@@H]2CCCN2CCc2nnn(C3CCC3)n2)cc1)NO
Q. Lab note: order the above by reported IC50, lowest first, highest last. Field: ranking. Enter the labels in the order requested.
A. Q, R, P

* * *

pIC50: −log10 of the molar value.
Below, pIC50 values reported for Histone deacetylase 1 (Homo sapiens) across several publications.
endpoint: pIC50

CC(C)NCCn1c(CCC(F)(F)F)nc2cc(/C=C/C(=O)NO)ccc21 ... 7.00

P. O=C(/C=C/c1ccc2c(c1)ncn2C1CCN(CCc2ccccc2)C1)NO (centres unmarked)
Q. O=C(/C=C/c1ccc([C@@H]2CCCN2CCc2cn(Cc3ccccc3)nn2)cc1)NO
R. O=C(/C=C/c1ccc([C@@H]2CCCN2CCc2c(-c3cccnc3)nn3ccccc23)cc1)NO
S. O=C(NO)c1ccc(Cn2ccc3c(-c4ccc(F)cc4F)ccnc32)cc1
Q. Let's sort these by pIC50, smallest first. Go ahead? Field: ranking. Enter the labels in the order requested.
A. S, P, Q, R

* * *

Below, IC50 values reported for Histone deacetylase 1 (Homo sapiens, UniProt Q13547) across several publications.
endpoint: IC50 (nM)

Cc1nn(CC2CC2)c(C)c1CCN1CCC[C@H]1c1ccc(/C=C/C(=O)NO)cc1 ... 2

1. O=C(/C=C/c1ccc(CN2CCC[C@H]2Cc2c[nH]c3ccccc23)cc1)NO
2. CCCN(CCn1cnc2cc(/C=C/C(=O)NO)ccc21)C(C)C
Q. Kindly identify which of 1 and 2 has the larger recorded IC50 value. Provide the label of your selected option as the answer.
A. 2

* * *

pIC50: −log10 of the molar value.
Below, pIC50 values reported for Histone deacetylase 1 (Homo sapiens) across several publications.
endpoint: pIC50

Some molecules with known pIC50 results, for comparison:
COc1ccc(CN2CC3(CCN(c4ccnc5c4ccn5Cc4ccc(C(=O)NO)cc4)CC3)C2)cc1 ... 6.25
O=C(NO)c1ccc(Cn2ccc3c(N4CCN(c5ccc(C(F)(F)F)cn5)CC4)ccnc32)cc1 ... 5.37
O=C(NO)c1ccc(Cn2ccc3cc(N4CCN(Cc5ccccc5)CC4)cnc32)cc1 ... 6.17
CCCCCCCCc1nc2cc(/C=C/C(=O)NO)ccc2n1CCN ... 7.59
Cc1nccn1CCn1c(C)c(Cc2ccc(C(=O)NO)cc2)c2ccccc21 ... 5.61
O=C(NO)c1ccc(Cn2ccc3cc(C4CCN(Cc5ccc(C(F)(F)F)cc5)CC4)cnc32)cc1 ... 5.20

1. CC(Cc1nc2cc(/C=C/C(=O)NO)ccc2n1CCN)CC(C)(C)C (stereo not shown)
2. O=C(NO)c1ccc(Cn2ccc3cc(N4CCC5(CC4)CN(Cc4ccccn4)C5)cnc32)cc1
Q. Kindly identify which of 1 and 2 has the larger recorded pIC50 value. Provide the label of your selected option as the answer.
A. 1
(1: 7.43, 2: 6.19)

P. Nc1ccc(-c2cccs2)cc1NC(=O)c1ccc2c(c1)cc(C1CC1)n2CCN1CCOCC1
Q. CC(C)(F)CN1CCC(c2ccnc3c2ccn3Cc2ccc(C(=O)NO)cc2)CC1
R. CN(C)CC(C)(C)Cn1c(C2CC3C=CC2C3)nc2cc(/C=C/C(=O)NO)ccc21 (stereo not shown)
S. Cc1ccc(NC(=O)N2CCC(Nc3ncc(C(=O)NO)cn3)(c3ccccc3)CC2)cc1
Q. Let's sort these by pIC50, smallest first. Go ahead? Field: ranking. Enter the labels in the order requested.
A. Q, R, S, P
(Q: 6.03, R: 6.64, S: 7.47, P: 8.22)
